solubility overview
Experiment: Solubility at pH 6.5
Format: physicochemical
Details: buffer
measured-attribute: solubility (µg/mL)

CCN(CC)C(=O)N1CCC2(C1)Nc1cc(OC)c(-c3cnco3)cc1C(=O)N2C (centres undefined) :: 813
COc1cc2[nH]c(=O)n(C)c(=O)c2cc1-c1cnco1 :: 3
COc1cc2c(cc1-c1cnco1)C(=O)N(C)C(C)(C)N2 :: 77
COc1cc2c(cc1-c1cnco1)C(=O)N(C)C1(CCN(C(=O)OC(C)(C)C)C1)N2 (centres undefined) :: 101

----------
Target: UniProtKB P12268
// classify: if (IC50 < 80 nM) Satisfied else Not satisfied

CCN(CC)C(=O)N1CCC2(C1)Nc1cc(OC)c(-c3cnco3)cc1C(=O)N2C (centres undefined) :: Satisfied
COC(=O)[C@H]1C[C@]2(CN1C(=O)OC(C)(C)C)Nc1cc(OC)c(-c3cnco3)cc1C(=O)N2C :: Satisfied
COC(=O)[C@@H]1C[C@]2(CN1C(=O)OC(C)(C)C)Nc1cc(OC)c(-c3cnco3)cc1C(=O)N2C :: Not satisfied
COc1cc2c(cc1-c1cnco1)C(=O)N(C)C(C)(C)N2 :: Not satisfied
COc1cc2c(cc1-c1cnco1)C(=O)N(C)C1(CCN(C(=O)N(C)c3ccc(F)cc3F)C1)N2 (centres undefined) :: Satisfied
COc1cc2c(cc1-c1cnco1)C(=O)N(C)C1(CCN(C(=O)Nc3ccccc3)C1)N2 (centres undefined) :: Not satisfied
COc1cc2c(cc1-c1cnco1)C(=O)N(C)C1(CCN(C(=O)N(C)c3ccccc3)C1)N2 (centres undefined) :: Satisfied
COc1cc2c(cc1-c1cnco1)C(=O)N(C)C1(CCCC1)N2 :: Not satisfied
COc1cc2c(cc1-c1cnco1)C(=O)N(C)C1(CCOCC1)N2 :: Not satisfied
CCNC(=O)N1CCC2(C1)Nc1cc(OC)c(-c3cnco3)cc1C(=O)N2C (centres undefined) :: Not satisfied
COC(=O)[C@@H]1C[C@@]2(CN1C(=O)OC(C)(C)C)Nc1cc(OC)c(-c3cnco3)cc1C(=O)N2C :: Not satisfied
COc1cc2c(cc1-c1cnco1)C(=O)N(CCc1ccncc1)C(C)(C)N2 :: Not satisfied
COc1cc2c(cc1-c1cnco1)C(=O)N(C)C1(CCN(C(=O)C(C)(C)C)C1)N2 (centres undefined) :: Not satisfied
